tested on: purified LasB (Pseudomonas aeruginosa, UniProt P14756)
Sequence (P14756 198-498): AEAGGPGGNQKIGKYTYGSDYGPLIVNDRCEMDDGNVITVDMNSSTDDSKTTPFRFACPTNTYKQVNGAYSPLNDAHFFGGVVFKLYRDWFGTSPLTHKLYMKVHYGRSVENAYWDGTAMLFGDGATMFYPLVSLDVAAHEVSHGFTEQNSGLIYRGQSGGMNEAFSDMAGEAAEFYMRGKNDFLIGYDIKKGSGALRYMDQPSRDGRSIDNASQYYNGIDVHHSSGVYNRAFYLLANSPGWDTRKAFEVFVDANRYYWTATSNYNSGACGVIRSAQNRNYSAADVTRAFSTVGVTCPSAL
protocol notes: Inhibition of LasB-mediated hydrolysis of pro-IL-1β to IL-1β (FRET peptide)
Description: Hydrolysis of this FRET peptide was continuously monitored using a Victor multimode plate reader (Perkin Elmer) with excitation 355 nm and emission at 450 nm in the presence of varying concentrations of compounds of the invention. Inhibitory constants (Ki) were determined for certain compounds of the invention (at least 2 independent replicates) using a competitive inhibitor model.
measurement type: Ki (nM)
Record the value in nM, omitting the unit from your answer.

Some entries whose results are on file:
>  <input smiles>
COc1cc2sc(CNC(=O)C3(CC(=O)[O-])Cc4ccccc4C3)nc2cc1OCCC[N+](C)(CCO)CCO

>  <measurement type>
Ki

>  <units text>
nM

>  <measured>
400

$$$$
>  <input smiles>
COc1cc2sc(CNC(=O)C3(CC(=O)O)Cc4cc(F)c(F)cc4C3)nc2cc1OCC1CCN(C)CC1

>  <measurement type>
Ki

>  <units text>
nM

>  <measured>
220

$$$$
>  <input smiles>
COc1cc2sc(CNC(=O)C3(CC(=O)[O-])Cc4ccccc4C3)nc2cc1OCCC[N+](C)(C)CCO

>  <measurement type>
Ki

>  <units text>
nM

>  <measured>
340

$$$$
>  <input smiles>
COc1cc2sc(CNC(=O)C3(CC(=O)[O-])Cc4ccccc4C3)nc2cc1OCCC[N+](C)(C)C

>  <measurement type>
Ki

>  <units text>
nM

>  <measured>
700

$$$$
>  <input smiles>
COc1cc2sc(CNC(=O)C3(CC(=O)[O-])Cc4cc(F)c(F)cc4C3)nc2cc1OCCC[N+]1(C)CCCC1

>  <measurement type>
Ki

>  <units text>
nM

>  <measured>
270

$$$$

Prompt: Enter measured Ki, system purified LasB (Pseudomonas aeruginosa, UniProt P14756), for the compound shown: "COc1cc2sc(CNC(=O)C3(CC(=O)O)Cc4ccccc4C3)nc2cc1OCCN1CCOCC1"
Response: 160

Prompt: Enter measured Ki, system purified LasB (Pseudomonas aeruginosa, UniProt P14756), for the compound shown: "COc1cc2sc(CNC(=O)C3(CC(=O)[O-])Cc4cc(F)c(F)cc4C3)nc2cc1OCCOCC[N+](C)(C)C"
Response: 420

Prompt: Enter measured Ki, system purified LasB (Pseudomonas aeruginosa, UniProt P14756), for the compound shown: "COc1cc2sc(CNC(=O)C3(CC(=O)[O-])Cc4cc(F)c(F)cc4C3)nc2cc1OCCC[N+](C)(CCO)CCO"
Response: 500

Prompt: Enter measured Ki, system purified LasB (Pseudomonas aeruginosa, UniProt P14756), for the compound shown: "COc1cc2sc(CNC(=O)C3(CC(=O)[O-])Cc4cc(F)c(F)cc4C3)nc2cc1OCC1CC[N+](C)(C)CC1"
Response: 300

Source of measurements: patent US20240016941A1
